From: PubChem BioAssay (NCATS)

# System: CRL-7250
# protocol-description: Cytotoxic Profiling of Annotated Libraries Using Quantitative High-Throughput Screening (AID 1296008); also: % is scaled to controls: 0 for no effect and ±100 for the full control effect; nearly all actives have a fitted effect of over 60% in size
# condition: Five cell lines viability, CellTiter-Glo ATP luminescence, 48-72 h; hits give low values
Results filed as inconclusive are left out.
# Lookup of reported max response keyed by entry
# output: bare number, implied unit %

Worked cases, answers included:
Query: Suppose we examine the compound NC(Cc1c[nH]c2ccc(O)cc12)C(=O)O (stereo not drawn) ; what max response value has been reported?
Result: -7.16

Query: Suppose we examine the compound Cc1cc(OCCN2CCOCC2)nn1-c1ccc2ccccc2c1 ; what max response value has been reported?
Result: -11.2

Query: Suppose we examine the compound C=C(C)[C@@H]1CC[C@]2(C(=O)O)CC[C@]3(C)[C@H](CCC4[C@@]5(C)CCC(=O)C(C)(C)C5C(O)C[C@]43C)C12 (stereo partly drawn) ; what max response value has been reported?
Result: -6.3

Query: Suppose we examine the compound CC1C2=CC(=O)OC2(O)CC2C1C(OC(=O)c1ccccc1)C(OC(=O)c1ccccc1)C1(O)C2(C)CCC(O)C1(C)C(=O)O (stereo not drawn) ; what max response value has been reported?
Result: -2.75

Query: Suppose we examine the compound Cn1cc(CCn2cnc(-c3cnn(C)c3)c2-c2ccc(C#N)cc2)cn1 ; what max response value has been reported?
Result: -0.888

---
Query: Suppose we examine the compound O=C(OC[C@H]1O[C@H](O[C@H]2CO[C@H](CO)[C@@H](O)[C@@H]2O)[C@H](O)[C@@H](O)[C@H]1O)c1ccccc1 ; what max response value has been reported?
Result: -5.33

Query: Suppose we examine the compound CC(=O)OC1C(O)/C(C)=C\C2C(OC(=O)c3ccccc3)C(C)CC2(OC(C)=O)C(OC(C)=O)C(C)/C=C/C(C)(C)C1OC(C)=O (stereo not drawn) ; what max response value has been reported?
Result: -1.02

Query: Suppose we examine the compound CC1=CC(=O)C2C(C)(C)CCC[C@]2(C)[C@H]1CC[C@H](C)CC(=O)O (stereo partly drawn) ; what max response value has been reported?
Result: -2.16

---

# Test system: KB-3-1
# protocol-description: Cytotoxic Profiling of Annotated Libraries Using Quantitative High-Throughput Screening (AID 1296008); also: % is scaled to controls: 0 for no effect and ±100 for the full control effect; nearly all actives have a fitted effect of over 60% in size
# condition: Five cell lines viability, CellTiter-Glo ATP luminescence, 48-72 h; hits give low values
Results filed as inconclusive are left out.
# Lookup of reported max response keyed by entry
# output: bare number, implied unit %

Worked cases, answers included:
Query: Lab note: need max response for C=C[C@]1(C)C[C@@H](OC(=O)CSC2C[C@H]3CC[C@@H](C2)N3C)[C@]2(C)[C@H](C)CC[C@]3(CCC(=O)[C@H]32)[C@@H](C)[C@@H]1O (stereo partly drawn) on KB-3-1, anyone have it?
Result: -17.7

Query: Lab note: need max response for COC(=O)[C@]1(C)CCC[C@@]2(C)C(=O)CC[C@H]3C(=O)C=C(CC[C@@H]21)C3O (stereo partly drawn) on KB-3-1, anyone have it?
Result: -0.869

Query: Lab note: need max response for COc1ccc(CCc2nc3cc(-c4c(C)noc4C)ccc3n2C[C@H](C)N2CCOCC2)cc1Cl on KB-3-1, anyone have it?
Result: -12.6

Query: Lab note: need max response for C/C(=C\CCC(C)(C)O)CCO[C@@H]1O[C@H](CO[C@@H]2O[C@@H](C)[C@H](O)[C@@H](O)[C@H]2O)[C@@H](O)[C@H](O)[C@H]1O on KB-3-1, anyone have it?
Result: 4.26

Query: Lab note: need max response for COC(=O)C1=CO[C@@H](O[C@@H]2O[C@H](CO)[C@@H](O)[C@H](O)[C@H]2O)[C@H]2[C@@H]1C=C[C@]21C=C([C@H](C)OC(=O)/C=C/c2ccc(O[C@@H]3O[C@H](CO)[C@@H](O)[C@H](O)[C@H]3O)cc2)C(=O)O1 on KB-3-1, anyone have it?
Result: 9.99

Query: Lab note: need max response for CC(=O)OC(C)C(C)(O)C(=O)O[C@@H]1CC[C@]2(C)CC(=O)C(=C(C)C)C[C@H]2[C@]1(C)OC(C)=O (stereo partly drawn) on KB-3-1, anyone have it?
Result: 6.09

---
Query: Lab note: need max response for COc1ccc2[nH]c(S(=O)Cc3ncc(C)c(OC)c3C)nc2c1 (stereo not drawn) on KB-3-1, anyone have it?
Result: 6.01

Query: Lab note: need max response for COc1cc(C(CO)CO[C@@H]2O[C@H](CO)[C@@H](O)[C@H](O)[C@H]2O)ccc1O (stereo partly drawn) on KB-3-1, anyone have it?
Result: 5.97

---

# Test system: Zika virus NS2B-NS3 protease (linked construct)
# protocol-description: Primary screen NINDS Rhodamine qHTS for Zika virus inhibitors (AID 1347160); also: nearly all actives have a fitted effect of over 55% in size
# condition: purified NS2B-NS3 protease, Rhodamine110 substrate fluorescence; series mostly up to 33.1 µM
Results filed as inconclusive are left out. Active and inactive are the calls of the source. Calls come from the whole dose curve; as a rule, active = well fitted inhibition curve with a large enough effect; inconclusive = small, poorly fitted or top-dose-only effect; inactive = no such curve, though single readings can be large or run the other way.
Hello, when you answer, please use one of the following outcomes: T = active, F = inactive

Examples with answers:
Query: Which result was noted for this molecule in the test: CC12CC(O)C(O)C=C1c1cc(O)cc(O)c1C(=O)O2 (stereo not given)
Result: F

Query: Which result was noted for this molecule in the test: CC1CCC2(C(=O)OC3OC(CO)C(O)C(O)C3O)CCC3(C)C(=CCC4C5(C)CCC(O)C(C)(CO)C5CCC43C)C2C1(C)O (stereo not given)
Result: F

Query: Which result was noted for this molecule in the test: Cc1c(NC(=O)N2CCOCC2)ccc2c1c1ccccc1n2C(C)C
Result: F

Query: Which result was noted for this molecule in the test: COC(=O)C1=COC(OC2OC(CO)C(O)C(O)C2O)C2C(C)C(OC(=O)/C=C/c3ccc(O)cc3)C(O)C12 (stereo not given)
Result: F

---
Query: Which result was noted for this molecule in the test: CCOc1ccc(-c2cc(NC(=O)c3c(F)cccc3F)c(C(=O)O)s2)cc1
Result: T

---

# System: C33A
# protocol-description: Primary qHTS to identify gynecologic anti-cancer compounds using libraries of approved drugs and bioactive compounds (AID 1345084); also: % is scaled to controls: 0 for no effect and ±100 for the full control effect; nearly all actives have a fitted effect of over 55% in size
# condition: Gynecologic cancer cell panel viability, ATPlite luminescence, 48 h; series mostly up to 57.5 µM
Results filed as inconclusive are left out. The source made the active and inactive calls. Calls follow the shape of the dose curve; as a rule, active = well fitted cell-killing curve with a large enough effect; inconclusive = small, poorly fitted or top-dose-only effect, or effect the other way; inactive = flat fitted curve, though single readings scatter.
measured-property: activity change, negative = cytotoxicity

Query: Suppose we examine the compound C[C@@H]1O[C@@H](O[C@H]2[C@H](OC(=O)[C@]34CCC(C)(C)C[C@H]3C3=CCC5[C@@]6(C)C[C@@H](O)[C@@H](O[C@@H]7O[C@H](CO)[C@@H](O)[C@H](O)[C@H]7O)[C@@](C)(CO)C6[C@H](O)C[C@@]5(C)[C@]3(C)CC4)OC[C@H](O)[C@@H]2O)[C@H](O)[C@H](O[C@@H]2OC[C@](O)(CO)[C@H]2O)[C@H]1O[C@@H]1OC[C@@H](O)[C@H](O[C@H]2O[C@H](C)[C@@H](O)[C@H](O)[C@@H]2O)[C@H]1O (stereo partly drawn) ; what activity change, negative = cytotoxicity value has been reported?
Result: 7.61% [at 6.55 µM] (inactive)

Query: Suppose we examine the compound COc1cnc(-n2cnc(C)n2)c2[nH]cc(C(=O)C(=O)N3CCN(C(=O)c4ccccc4)CC3)c12 ; what activity change, negative = cytotoxicity value has been reported?
Result: inactive

Query: Suppose we examine the compound COc1cc(C(=O)OCC2=CCC3C(C(=O)O)=COC(O[C@@H]4O[C@H](CO)[C@@H](O)[C@H](O)[C@H]4O)C23)ccc1O (stereo partly drawn) ; what activity change, negative = cytotoxicity value has been reported?
Result: inactive

---

# Test system: Es-2
# protocol-description: Primary qHTS to identify gynecologic anti-cancer compounds using libraries of approved drugs and bioactive compounds (AID 1345084); also: % is scaled to controls: 0 for no effect and ±100 for the full control effect; nearly all actives have a fitted effect of over 55% in size
# condition: Gynecologic cancer cell panel viability, ATPlite luminescence, 48 h; series mostly up to 57.5 µM
Results filed as inconclusive are left out. The source made the active and inactive calls. Calls follow the shape of the dose curve; as a rule, active = well fitted cell-killing curve with a large enough effect; inconclusive = small, poorly fitted or top-dose-only effect, or effect the other way; inactive = flat fitted curve, though single readings scatter.
measured-property: activity change, negative = cytotoxicity

Worked cases, answers included:
Query: Suppose we examine the molecule CC1=C(CO)CC(C(C)C2CCC3C4CC=C5CC(OC6OC(COC7OC(CO)C(O)C(O)C7O)C(O)C(O)C6O)CC(O)C5(C)C4CCC23C)OC1=O (stereo not drawn) ; what activity change, negative = cytotoxicity value has been reported?
Result: inactive

Query: Suppose we examine the molecule C=CC(C)(O)CC/C=C(\C)C(=O)O[C@@H]1[C@@H](O)[C@H](OC(C)(C=C)CC/C=C(\C)C(=O)O[C@@H]2O[C@H](CO)[C@@H](O)[C@H](O)[C@H]2O)O[C@H](CO)[C@H]1OC(=O)/C(C)=C/CCC(C)(O)C=C (stereo partly drawn) ; what activity change, negative = cytotoxicity value has been reported?
Result: 0.394% [at 11.6 µM] (inactive)

Query: Suppose we examine the molecule NC1(c2ccc(NC(=O)c3ccnc(-c4cc(C(=O)O)ccn4)c3)cc2)CC1 ; what activity change, negative = cytotoxicity value has been reported?
Result: inactive

Query: Suppose we examine the molecule C[C@@H]1O[C@@H](O[C@H]2[C@H](O[C@H]3[C@H](O[C@H]4CC[C@@]5(C)C(CC[C@]6(C)C5CC=C5[C@@H]7CC(C)(C)CC(=O)[C@]7(C)CC[C@]56C)[C@@]4(C)CO)O[C@H](C(=O)O)[C@@H](O)[C@@H]3O)O[C@H](CO)[C@H](O)[C@@H]2O)[C@H](O)[C@H](O)[C@H]1O (stereo partly drawn) ; what activity change, negative = cytotoxicity value has been reported?
Result: -0.773% [at 11.6 µM] (inactive)

Query: Suppose we examine the molecule C=C1Cc2c(Cl)cc3[nH]c4c5c3c2[C@@]2(O)[C@@H]1C[C@@H]2C(C)(C)O[C@H]5C1CC[C@@]2(O)[C@@]35O[C@@H]3[C@H]3OC(C)(C)[C@H]3O[C@H]5CC[C@]2(C)[C@@]41C (stereo partly drawn) ; what activity change, negative = cytotoxicity value has been reported?
Result: inactive

---
Query: Suppose we examine the molecule O=C(O)CC1CCC(c2ccc(NC(=O)c3nnc(Nc4ccc(F)c(F)c4)o3)cc2)CC1 (stereo not drawn) ; what activity change, negative = cytotoxicity value has been reported?
Result: inactive

Query: Suppose we examine the molecule C=C1[C@H](OC(C)=O)[C@H]2[C@@H](OC(C)=O)C(C)C[C@]2(OC(C)=O)C(=O)[C@H](C)/C=C/C(C)(C)C(=O)[C@H](OC(=O)C(C)C)[C@H]1OC(C)=O (stereo partly drawn) ; what activity change, negative = cytotoxicity value has been reported?
Result: inactive

Query: Suppose we examine the molecule CC(C)Oc1ccc(-c2nc(-c3cccc4c3CCC4NCCC(=O)O)no2)cc1C#N (stereo not drawn) ; what activity change, negative = cytotoxicity value has been reported?
Result: inactive

Query: Suppose we examine the molecule COC(=O)c1cc(OC)cc(OC)c1C(=O)c1c(OC)cc2c(c1O)C1CCC(O)C(C)(O2)O1 (stereo not drawn) ; what activity change, negative = cytotoxicity value has been reported?
Result: inactive

Query: Suppose we examine the molecule COC(=O)c1c(CC=C(C)C)c(OC2OC(CO)C(O)C(O)C2O)c2ccccc2c1OC1OC(CO)C(O)C(O)C1O (stereo not drawn) ; what activity change, negative = cytotoxicity value has been reported?
Result: inactive

Query: Suppose we examine the molecule C/C=C/C=C/[C@@H]1O[C@](O)([C@H](CC)C(=O)NC/C=C/C=C(\C)[C@@H](OC)[C@@H](C)[C@@H]2O[C@H](/C=C/C=C/C=C(\C)C(=O)c3c(O)ccn(C)c3=O)[C@H](O)[C@@H]2O)[C@H](O)[C@H](O)C1(C)C ; what activity change, negative = cytotoxicity value has been reported?
Result: -3.84% [at 11.6 µM] (inactive)

Query: Suppose we examine the molecule C=C1C(OC(C)=O)CCC2(C)CCC(C(C)(C)O)CC12 (stereo not drawn) ; what activity change, negative = cytotoxicity value has been reported?
Result: inactive

Query: Suppose we examine the molecule C[C@@H]1O[C@@H](OC(=O)Cc2ccccc2)[C@H](O)[C@H](O)[C@H]1O ; what activity change, negative = cytotoxicity value has been reported?
Result: inactive
